System: CRL-7250
MEASUREMENT DESCRIPTION: Cytotoxic Profiling of Annotated Libraries Using Quantitative High-Throughput Screening (AID 1296008); further: on the % scale 0 is the no-effect control and ±100 the full control effect; nearly all actives have a fitted effect of over 60% in size
RUN CONDITIONS: Five cell lines viability, CellTiter-Glo ATP luminescence, 48-72 h; hits give low values
Protocol: Cell-based phenotypic screening is a commonly used approach to discover biological pathways, novel drug targets, chemical probes and high-quality hit-to-lead molecules. […] A pintool (Kalypsys) was used to transfer 23 nL of compound solution to the 1536-well assay plates. […] Plates were left at room temperature for 10 min before imaging the ATP-coupled luminescence using a ViewLux microplate imager (PerkinElmer, Waltham, MA).
Results filed as inconclusive are left out.
MEASURED PARAMETER: max response (%)
Kindly provide the numeric value in % only, without the unit symbol.

# input Item "O=C(O)CCC(=O)Nc1ccc(S(=O)(=O)Nc2nccs2)cc1" has what recorded max response?
# output -7.17

# input Item CC(CNC1CCCCC1)OC(=O)c1ccccc1 (centres undefined) has what recorded max response?
# output -16.2

# input Item "CC[C@]12CCCN3CCc4c(n(c5ccccc45)C(=O)C1)[C@@H]32" has what recorded max response?
# output 2.69

# input Item "C#C[C@]1(O)CC[C@H]2[C@@H]3CCC4=CC(=O)CC[C@@H]4[C@H]3CC[C@@]21CC" has what recorded max response?
# output -4.9

# input Item O=C(Nc1ccccc1)OCC(CN1CCCCC1)OC(=O)Nc1ccccc1 (centres undefined) has what recorded max response?
# output -24

# input Item C[N+]12CCC(CC1)C(OC(=O)C(O)(c1ccccc1)c1ccccc1)C2 (centres undefined) has what recorded max response?
# output 3.27

# input Item "COc1cc(O)c(C(=O)c2ccccc2)cc1S(=O)(=O)O" has what recorded max response?
# output 1.74

# input Item "CCCCc1cc2ccccc2c(OCCN(C)C)n1" has what recorded max response?
# output -9.77

# input Item "COc1ccc(C(=O)c2ccccc2)c(O)c1" has what recorded max response?
# output -4.19

# input Item "CCCCCCCCCCCCCC(=O)OC(C)C" has what recorded max response?
# output -4.95

# input Item "C#C[C@]1(O)CC[C@H]2[C@@H]3[C@H](C)CC4=C(CCC(=O)C4)[C@H]3CC[C@@]21C" has what recorded max response?
# output -3.96

# input Item "NS(=O)(=O)c1ccc(Cl)c(S(N)(=O)=O)c1" has what recorded max response?
# output -4.09

# input Item "C[N+]1(C)CCC(=C(c2ccccc2)c2ccccc2)CC1" has what recorded max response?
# output -1

# input Item COC(=O)C(c1ccccc1Cl)N1CCc2sccc2C1 (centres undefined) has what recorded max response?
# output -10.1

# input Item "NS(=O)(=O)Cc1noc2ccccc12" has what recorded max response?
# output 0.547

# input Item "COc1cc(C)nc(-n2nc(C)cc2OC)n1" has what recorded max response?
# output -9.05

# input Item "CC(=O)OCC(=O)[C@H]1CC[C@H]2[C@@H]3CCC4=CC(=O)CC[C@]4(C)[C@H]3CC[C@]12C" has what recorded max response?
# output 1.7

# input Item "Cc1c(-c2ccccc2)oc2c(C(=O)OCCN3CCCCC3)cccc2c1=O" has what recorded max response?
# output -1.78

# input Item "c1ccc(-c2nc[nH]c2-c2ccccc2)cc1" has what recorded max response?
# output -18.7

# input Item "COc1ccc(-c2cc(C(F)F)nn2-c2ccc(S(N)(=O)=O)cc2)cc1F" has what recorded max response?
# output 2.74

# input Item "CC(=O)Oc1ccc(C)cc1" has what recorded max response?
# output -8.74

# input Item CCC1NC(=O)c2cc(S(N)(=O)=O)c(Cl)cc2N1 (centres undefined) has what recorded max response?
# output -0.729

# input Item "CCOc1ccc(NC(C)=O)cc1" has what recorded max response?
# output -21.4

# input Item Cc1cc(C)cc(OCC2CNC(=O)O2)c1 (centres undefined) has what recorded max response?
# output 2.93
